Please go through the items and note down their viability at 28.5 h, 10 µM.
Test: in vitro
Details: human, hela cells, % viability
One number for each entry, in %.

Before answering, review these 6 worked examples.
Compound: CC(C)(CO)CCCn1cncc1-c1cnn(-c2ccc(F)cc2)c1
viability at 28.5 h, 10 µM (%): 117

Compound: CC(=O)Nc1ccc(Sc2ccccn2)cc1
viability at 28.5 h, 10 µM (%): 101

Compound: O=C(CSCc1ccc(Br)cc1)NCc1ccccn1
viability at 28.5 h, 10 µM (%): 102

Compound: COc1ccc(C(C)C)cc1-c1cncc(N[C@H](C)c2ccccc2)n1
viability at 28.5 h, 10 µM (%): 105

Compound: Cc1c(Cc2ccccc2)c(-n2ccnc2C)n2c(nc3ccccc32)c1C#N
viability at 28.5 h, 10 µM (%): 92.4

Compound: Cc1cc(N2CCC(c3cc(CCOc4ccc(Cl)cc4)[nH]n3)C2)nc(C)n1 (stereo not drawn)
viability at 28.5 h, 10 µM (%): 98.1

Please supply viability at 28.5 h, 10 µM for each of the following items, keeping them in order.
1. O=C(Cc1ccc(F)cc1)N1CCC(O)(c2ccccn2)CC1
2. NCCNc1ccc(C(=O)Nc2cccc(Cl)c2)cc1[N+](=O)[O-]
3. CC1=Nc2ccc(Cl)cc2C(C)(C)O1 [CBK022763C]
4. Cc1nc(CCCn2cnc3ncccc3c2=O)sc1C
5. CCNS(=O)(=O)c1ccc(NC(=O)c2nc3nc(C)cc(C(F)F)n3n2)cc1
6. COC(=O)c1ccc(NC(=O)CSc2nnc(-c3ccncc3)s2)cc1

Reply:
1. 97
2. 85.3
3. 107
4. 106
5. 104
6. 103

Please supply viability at 28.5 h, 10 µM for each of the following items, keeping them in order.
1. CCOc1ccsc1C(=O)N1CCN(CCc2ccccc2)CC1
2. O=C(Nc1ccc2n(c1=O)C[C@H]1C[C@@H]2CN(C(=O)Cc2cccs2)C1)c1ccccc1

Reply:
[91.5, 82.4]

Please supply viability at 28.5 h, 10 µM for each of the following items, keeping them in order.
1. O=C(CSc1ncnc2c1oc1ccccc12)NCc1ccccc1
2. COc1ccc(C(=O)N2CCC3(CCCN(CC(=O)Nc4ncccn4)C3)C2)cc1OC (stereo not drawn)
3. COC(=O)[C@@H](NC(=O)C1CCN(C(=O)OCc2ccccc2)CC1)c1ccccc1
4. CC(Oc1cccc2ccccc12)C(=S)N(C)c1ccccc1 (stereo not drawn)
5. Nc1nc2sc3c(c2cc1C(=O)N1CCOCC1)CCCC3
6. CN(C)c1ccc(CC(=O)N2CCc3ccccc3C2)cc1
7. Cc1cc(C(=O)Nc2cc(F)c(N3CCCC3)c(F)c2)c(C)n1C1CC1
8. O=C(COC(=O)c1cc(O)nc2ccccc12)c1ccccc1Cl

Reply:
101
105
107
88.2
96.1
93.7
102
95.2

Please supply viability at 28.5 h, 10 µM for each of the following items, keeping them in order.
1. O=C(/C=C/c1ccc(Cl)cc1)Nc1nnn[nH]1
2. CCn1c2ccccc2c2cc(CN(CCN(C)C)Cc3ccccc3)ccc21
3. Cc1cc(NS(=O)(=O)c2cccc(Cl)c2C)on1

Reply:
1. 81.8
2. 102
3. 92

----------
Experiment: in vitro
Settings: human, hela cells, % viability
Classify: t when viability at 28.5 h, 10 µM is strictly less than 90%; f when viability at 28.5 h, 10 µM is not.

Study these solved cases before continuing.
Compound Structure String: C=CCn1c(NCc2ccccc2NS(=O)(=O)c2ccc(C)cc2)nc2ccccc21
Category: f

Compound Structure String: CC(=O)N1CCC[C@H]2NC(=O)CNC(=O)C3(C/C=C/C[C@H]21)CCN(Cc1cc[nH]n1)CC3
Category: f

Ask: viability at 28.5 h, 10 µM under 90%? Item: CCOC(=O)N1CCC(NS(=O)(=O)c2ccc(C)c([N+](=O)[O-])c2)CC1
Reply: t

Ask: viability at 28.5 h, 10 µM under 90%? Item: CCNC(=O)Nc1ccc2ccc(-c3ccsc3)nc2n1
Reply: t

Ask: viability at 28.5 h, 10 µM under 90%? Item: CC(C)(C)OC(=O)N[C@@H](Cc1ccccc1)CN(Cc1ccccc1)Cc1ccc(S(=O)(=O)N2CCOC2=O)cc1
Reply: t

Ask: viability at 28.5 h, 10 µM under 90%? Item: COc1ccc([C@@H]2CCN(C(=O)Cc3ccccc3F)C[C@H]2O)cc1
Reply: f

----------
Assay: in vitro
Parameters: Viability of infected HeLa host cells, resazurin conversion, bulk resorufin fluorescence relative to DMSO
Conditions: human, hela cells; bulk resorufin, mean of 2
Property Label: viability at 28.5 h, 1 µM (%)
One number for each entry, in %.

Compound: Fc1cc(Br)c(CNCc2ncc[nH]2)c(N2CCCCC2)c1F
Result Value: 96.3

Please supply viability at 28.5 h, 1 µM for each of the following items, keeping them in order.
1. N=C(N)SCc1csc(-c2ccc(Br)cc2)n1 [CBK017064C]
2. COc1ccc(-c2csc(/C(C#N)=C/Nc3ccc(S(=O)(=O)Nc4nccs4)cc3)n2)cc1
3. Cc1noc(-c2ccc3c(c2O)OCCO3)c1-c1ccc(Cl)cc1
4. COCCCNS(=O)(=O)c1ccc(-n2ncc(Cl)c(Cl)c2=O)cc1
5. CC(C)c1ccc(/C=C/C(=O)NCc2ccc(NS(C)(=O)=O)cc2)cc1

Reply:
[90.5, 99.9, 96.5, 97.7, 101]

----------
Test: in vitro
Conditions: human, hela cells, % viability
Property Label: viability at 28.5 h, 10 µM (%)
One number for each entry, in %.

Molecule: COc1cc(Nc2cc(-c3ccccc3N(C)C)ncn2)cc(OC)c1OC
viability at 28.5 h, 10 µM [%]: 64.2

Molecule: Cc1nn(CC(=O)N2CCCC2)c(=O)c2cc3occc3n12
viability at 28.5 h, 10 µM [%]: 84.5

Molecule: COCn1nccc1S(=O)(=O)NCCc1cn2ccccc2n1
viability at 28.5 h, 10 µM [%]: 80.6

Molecule: CCn1ncc(S(=O)(=O)Nc2ccc3c(ccn3C)c2)c1C
viability at 28.5 h, 10 µM [%]: 102

Molecule: O=C(Nc1ccc(=O)n2c1[C@@H]1C[C@@H](CN(C(=O)COc3ccccc3)C1)C2)c1cncnc1
viability at 28.5 h, 10 µM [%]: 109

Please supply viability at 28.5 h, 10 µM for each of the following items, keeping them in order.
1. Cc1c(S(=O)(=O)N2CCN(C3CCN(C)CC3)CC2)sc2ccc(C(C)C)cc12
2. COc1ccc(Oc2nccnc2N2CCN(Cc3ccc(C(F)(F)F)cc3)CC2)cc1OC [CBK083044T]
3. O=C(Nc1cccnc1)c1cnc(-c2ccc(Cl)cc2)c(-c2cccnc2)c1
4. CCCCC(Sc1nc(N)cc(Cl)n1)c1cc(C)ccn1 (stereo not shown)
5. CC(=O)NCc1ccc(-c2ccc(C(=O)NC3(c4ccccc4)CCCC3)c(C)n2)cc1

Reply:
105
102
102
106
96

----------
Assay: in vitro
Settings: human, hela cells, % viability
Property Label: viability at 28.5 h, 10 µM (%)
Give bare numbers, in %.

Before answering, review these 4 worked examples.
Compound: O=C1c2ccc(Oc3cccc(Oc4ccc5c(c4)C(=O)N(CCO)C5=O)c3)cc2C(=O)N1CCO
Result Value: 110
//
Compound: O=C(CC(NC1CCCCC1)C(=O)O)Nc1cccc(Cl)c1 (centres unmarked)
Result Value: 98.5
//
Compound: CC1(C)Cc2c(oc(N)c2C#N)CO1
Result Value: 101
//
Compound: O=C(/C=C/c1ccc(C(=O)Nc2cccnc2)cc1)Nc1cccnc1
Result Value: 66.7

Please look at the following compound next.
// viability at 28.5 h, 10 µM lookup, compound = O=C(NC1CCCCC1)N[C@H]1CO[C@H]2[C@@H]1OC[C@@H]2n1cc(-c2ccccc2)nn1 , result: 84.6

----------
Please go through the items and note down their viability at 28.5 h, 10 µM.
Test: in vitro
Settings: human, hela cells, % viability
Answers are plain numbers, in %.

Before answering, review these 5 worked examples.
Molecule: COC(=O)CCn1c(=O)c2c(nc3oc(C)c(C)n32)n(C)c1=O
Display Unit: %
Result Value: 109

Molecule: COCCNC(=O)c1ccc(-c2ccccc2C)nc1NC(C)=O
Display Unit: %
Result Value: 109

Molecule: CC(C)N1CCOC[C@H]1c1nc(-c2ccc(S(C)(=O)=O)cc2)c[nH]1
Display Unit: %
Result Value: 91.2

Molecule: COC(=O)C1=C(C)N(c2cccc(C(F)(F)F)c2)C(=O)/C1=C\c1ccc(C(=O)O)cc1
Display Unit: %
Result Value: 92.8

Molecule: Cc1c(C(C)NCC(O)c2ccco2)cnn1-c1ccc(C#N)cc1 (stereo not drawn)
Display Unit: %
Result Value: 88.4

Please supply viability at 28.5 h, 10 µM for each of the following items, keeping them in order.
1. O=C(Cc1cccnc1)N1CCC(O)(c2cccc(F)c2)CC1
2. CC(C)(C)OC(=O)N1CCC(C2OCc3cc(-c4ccc(S(C)(=O)=O)cn4)ccc3O2)CC1 (stereo not drawn)
3. O=C(NC1CCCC1)c1ccccc1Cl
4. CCCC/C=C/c1cnc(N)c(N2CCOCC2)n1

Reply:
1. 95.9
2. 87.6
3. 98.3
4. 98.1

Please supply viability at 28.5 h, 10 µM for each of the following items, keeping them in order.
1. Cc1cccn2cc(CCNC(=O)N[C@H](C)C(=O)N(C)C)nc12
2. C=CCn1cc(CN2CCc3nc(C)[nH]c(=O)c3C2)c2ccccc21
3. Cc1ccc(S(=O)(=O)N2CCN(CC(O)COc3ccc4ccccc4c3)CC2)cc1 (stereo not drawn)
4. COc1cc(CN2CCC3(CC2)CN(CCO)c2ccccc23)cc(OC)c1OC
5. Cc1cc(CN2CCN(CCc3ccccc3)CC2)no1
6. NS(=O)(=O)c1ccc(NC(=O)CSc2ccc3ccccc3c2)cc1
7. Cc1cc(C)n2c(SCC(=O)O)nnc2n1

Reply:
110
85.9
97.7
94.9
85.8
89.8
108
